Molecular target: human KDR (VEGFR2) on cells (human, UniProt P35968 20-1356); further: test concentration or dose not given here
Sequence (P35968 20-1356): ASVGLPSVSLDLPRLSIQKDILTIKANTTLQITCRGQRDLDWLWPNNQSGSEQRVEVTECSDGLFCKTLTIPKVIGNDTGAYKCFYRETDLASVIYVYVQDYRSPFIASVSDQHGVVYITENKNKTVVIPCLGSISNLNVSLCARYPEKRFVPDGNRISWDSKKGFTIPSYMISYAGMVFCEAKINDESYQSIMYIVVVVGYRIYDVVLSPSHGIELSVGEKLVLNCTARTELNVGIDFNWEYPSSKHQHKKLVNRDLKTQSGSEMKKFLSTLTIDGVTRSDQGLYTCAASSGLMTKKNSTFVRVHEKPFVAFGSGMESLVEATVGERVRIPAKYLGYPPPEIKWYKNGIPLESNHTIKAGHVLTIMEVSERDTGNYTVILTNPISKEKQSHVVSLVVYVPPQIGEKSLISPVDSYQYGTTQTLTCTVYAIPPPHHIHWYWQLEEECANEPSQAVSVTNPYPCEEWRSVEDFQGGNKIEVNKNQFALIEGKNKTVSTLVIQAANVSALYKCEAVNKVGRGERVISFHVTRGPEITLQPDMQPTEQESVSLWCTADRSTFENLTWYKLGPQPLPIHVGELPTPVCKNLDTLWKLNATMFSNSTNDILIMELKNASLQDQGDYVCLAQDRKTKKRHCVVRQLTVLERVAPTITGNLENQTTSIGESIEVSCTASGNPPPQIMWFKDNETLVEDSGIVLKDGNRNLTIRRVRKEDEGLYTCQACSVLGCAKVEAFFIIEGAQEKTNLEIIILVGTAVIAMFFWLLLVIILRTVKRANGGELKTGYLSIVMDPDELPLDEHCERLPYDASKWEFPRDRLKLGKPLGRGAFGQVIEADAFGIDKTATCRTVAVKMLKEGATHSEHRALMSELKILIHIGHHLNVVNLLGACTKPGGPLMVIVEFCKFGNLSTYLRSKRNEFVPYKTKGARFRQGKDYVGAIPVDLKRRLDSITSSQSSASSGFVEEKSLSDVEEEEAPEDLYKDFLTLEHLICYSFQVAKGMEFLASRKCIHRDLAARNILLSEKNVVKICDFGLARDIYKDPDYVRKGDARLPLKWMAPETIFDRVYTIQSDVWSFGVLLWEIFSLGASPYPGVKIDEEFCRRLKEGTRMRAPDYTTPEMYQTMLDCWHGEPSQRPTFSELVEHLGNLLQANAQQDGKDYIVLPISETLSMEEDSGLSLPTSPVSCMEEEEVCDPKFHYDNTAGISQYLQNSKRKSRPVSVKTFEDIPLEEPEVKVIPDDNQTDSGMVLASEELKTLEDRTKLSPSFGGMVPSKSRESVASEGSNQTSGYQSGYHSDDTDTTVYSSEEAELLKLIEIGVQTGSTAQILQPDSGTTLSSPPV
Assay: cell-based or functional assay
What % Inhibition of VEGF165-mediated pTyr Activity, n = 1 was measured for each of the following?
API: value field is a number in %; no unit string.

# input binder: anti-KDR monoclonal antibody 33D5 (antibody, V domains shown, Fully human mAb from XenoMouse (IgG2 or IgG4 strain); hybridoma supernatant) VH: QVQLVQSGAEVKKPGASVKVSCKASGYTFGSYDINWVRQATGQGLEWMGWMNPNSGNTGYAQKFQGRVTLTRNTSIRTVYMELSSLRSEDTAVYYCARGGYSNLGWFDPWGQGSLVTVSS VL: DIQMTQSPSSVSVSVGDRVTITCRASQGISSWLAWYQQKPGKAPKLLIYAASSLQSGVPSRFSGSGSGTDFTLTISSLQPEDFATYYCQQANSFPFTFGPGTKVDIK ; wanted: its % Inhibition of VEGF165-mediated pTyr Activity, n = 1 95

Next binder up: anti-KDR monoclonal antibody 33E1 (antibody, V domains shown, Fully human mAb from XenoMouse (IgG2 or IgG4 strain); hybridoma supernatant) VH: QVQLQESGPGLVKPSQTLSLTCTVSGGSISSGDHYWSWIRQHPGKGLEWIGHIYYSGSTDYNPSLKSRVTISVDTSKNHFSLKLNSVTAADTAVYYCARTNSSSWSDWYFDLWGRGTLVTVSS VL: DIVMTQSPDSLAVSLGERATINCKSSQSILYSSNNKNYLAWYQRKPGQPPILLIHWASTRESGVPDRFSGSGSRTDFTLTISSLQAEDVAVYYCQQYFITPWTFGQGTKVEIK 88

Cited source: patent US20100260765A1
